Biological target: Muscarinic acetylcholine receptor M4 (Homo sapiens)
Experiment: M4-linked GIRK flux change, two-sided – cell-based, HEK293 M4/GIRK, thallium flux, BTC-AM, M4 allosteric agonist project, primary screen (AID 625);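 note: thallium influx through GIRK channels coupled to M4 in HEK293 cells with BTC-AM dye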
Conditions: at 10 µM, actives lie on both sides
Just so you know, the groups by fluorescence slope go like this: bottom end = under 0.005, midrange = from 0.005 up to 0.006, top end = 0.006 and over

{"compound": "CC(C(=O)NCc1cccnc1)N1C(=O)c2ccccc2C1=O (stereo not drawn)", "assigned category": "midrange"}
{"compound": "Cc1ccc2c(c1)-c1cc(C)nn1C(c1ccc3c(c1)OCO3)N2 (stereo not drawn)", "assigned category": "midrange"}
{"compound": "CN(CC(O)COCc1cccs1)C1CCCCC1 (stereo not drawn)", "assigned category": "top end"}
{"compound": "Cn1c(C(=O)NCC2CCCO2)cc2c(=O)[nH]c3ccccc3c21 (stereo not drawn)", "assigned category": "top end"}
{"compound": "O=C(O)CCc1ccc(-c2cccs2)n1NC(=O)c1ccco1", "assigned category": "bottom end"}
{"compound": "c1c2c(cc3sc(N4CCCCC4)nc13)OCCO2", "assigned category": "bottom end"}

Entry Cc1cccc(-n2nnc(C(=O)NCc3ccccc3)c2N)c1 belongs to which category?
midrange

Could you tell me which band CCCCOc1ccc(-c2nnn(CC(=O)NCc3ccco3)n2)cc1 belongs to?
bottom end

Where would CN(C(=O)c1ccno1)c1nnc(-c2cnccn2)s1 land among the classes by reported fluorescence slope?
midrange

Bin this entry: COC(=O)c1cccc(S(=O)(=O)N2CCN(c3nc4ccccc4s3)CC2)c1
top end

State the class of the compound shown: N#C/C(C(=O)N1CCOCC1)=C1/SC=C(c2ccccc2)N1c1ccccc1
midrange

Form: Item = O=C(O)CCn1c(SCc2ccccc2)nc2ccccc21 ; Class = ?
midrange

Which bin, given its fluorescence slope, does Cc1ccc(O)c(C(=O)c2cc(C#N)c(=O)n(CC3CCCO3)c2)c1 (stereo not drawn) occupy?
top end

Kindly state the category for this compound: CC(=O)SCC(=O)N=c1sc2cc(F)ccc2n1C
midrange

Band assignment needed for Cc1ccc(-c2nnc(-c3ccc(Br)cc3)o2)o1 please.
top end

====

Experiment: inhibitors of TNFa-induced NFkB p65 translocation, primary screen, imaging, HUVEC, MLSMR starter and 10KST1 sets (AID 438);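 note: compound added about 3h40 before a 20 min TNFalpha stimulation; signal is the nuclear over cytoplasmic p65 intensity ratio per well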
Conditions: HUVEC TNFa-induced p65 nuclear translocation; at 2 µM, stronger effect = higher value, 0% TNFa-plus-vehicle, 100% no-TNFa wells
# inhibition per record follows
Answer in %, number only, no unit symbol.

For the compound O=C(c1ccc(-c2cccc(C(F)(F)F)c2)o1)N1CCOCC1 , give its measured inhibition value.
4.3

====

Test: endothelial E-selectin expression blockers – imaging, HUVEC, immunofluorescence, MLSMR starter and 10KST1 sets, primary screen (AID 487);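 for nuclei count: 100% = median nuclei count of all wells on the same plate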
Settings: HUVEC TNFalpha-induced E-selectin immunofluorescence imaging, at 2 µM; measured here: cell number, toxicity
readout name: nuclei count (%)
Report as a plain number; the unit % is understood.

{"molecule": "Cc1cc(NC(=O)NC(=O)c2cccc(OC(F)(F)C(F)F)c2)n[nH]1", "reported": 102}
{"molecule": "CC(C(=O)N1CCCCC1)n1ncn2cccc2c1=O (stereo not drawn)", "reported": 97.4}

Write down nuclei count measured for item O=C(Nc1ccncc1)c1cncc(Br)c1
114

====

Experiment: endothelial E-selectin expression blockers – imaging, HUVEC, immunofluorescence, MLSMR starter and 10KST1 sets, primary screen (AID 487);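 for inhibition: signal is fraction of cell area covered by stained E-selectin grains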
Conditions: HUVEC TNFalpha-induced E-selectin immunofluorescence imaging, at 2 µM; stronger effect = higher value
readout name: inhibition (%)
Only the number, expressed in %, is required.

Reference set, count: 2
{"item smiles": "Cc1ccc(NC(=O)N2CCC(c3nc4c(nnn4Cc4cccc(Cl)c4)c(=O)[nH]3)CC2)cc1", "endpoint unit": "%", "reported": -3.8}
{"item smiles": "CCOc1ncccc1C(=O)Nc1ccc2c(C)cc(=O)oc2c1", "endpoint unit": "%", "reported": -26.9}

Could you now look at the following compound, please?
Indicate the recorded inhibition value for this compound: CCOC(=O)CSc1nc2cc(C(=O)NCc3ccco3)ccc2c(=O)n1-c1ccc(F)cc1
7.7
